Tested on: 14C2 antibody
Assay type: binding
# note: boundary value 0.2 maps to rule not met; Binding activity to truncated M2 peptides, ELISA absorbance at 450 nm, 14C2 below it maps to rule met

>  <SUBSTANCE>
TPIRNEWGCRCNDSSD [CM16]

>  <EXPERIMENTAL TARGET>
14C2 antibody

>  <LABEL CLASS>
rule not met

$$$$

// query Is Binding activity to truncated M2 peptides, ELISA absorbance at 450 nm, 14C2 of SLLTEVE [NM7] strictly below 0.2?
// result rule met

// query Next entry: IRNEWGCRCNDSSD [CM14]
// result rule not met

// query Field entry: VETPIRNEWGCR [M12]
// result rule met

// query Also MSLLTEVETPIRNEWGCRCNDSSD [M2e] , if possible.
// result rule not met

// query Next up: SLLTEVETPI [NM10]
// result rule met

// query Quick one: LLTEVETPIRNEWGCR [M16]
// result rule not met

// query Moving on to SLLTEVETPIRNEWGC [NM16]
// result rule not met

// query Lookup NEWGCRCNDSSD [CM12]
// result rule not met

// query Repeat with SLLTEVETPIRNEWGCRCNDSSD [M2]
// result rule not met

// query What do we get for SLLTEVETPIR [NM11] ?
// result rule not met

// query Similarly, SLLTEVET [NM8] ?
// result rule met

// query Another substance: SLLTEVETPIRNEWGCR [NM17]
// result rule not met

* * *

Test system: anti-M2 human monoclonal antibody Z3G1
Type: binding
RESULT TYPE: Signal (peptides that show specific binding to Z3G1)
Kindly provide the number alone.

Take a look at these entries with their results.
>  <SUBSTANCE>
658 (SLLTEVYTPIRNEWGCRCNDSSD; epitope peptide) [compound 658]

>  <OBS VALUE>
1092

$$$$
>  <SUBSTANCE>
680 (SLLTEVETPIVNEWGCRCNDSSD; epitope peptide) [compound 680]

>  <OBS VALUE>
2366

$$$$
>  <SUBSTANCE>
714 (SLLTEVETPIRNEWCCRCNDSSD; epitope peptide) [compound 714]

>  <OBS VALUE>
2388

$$$$
>  <SUBSTANCE>
477 (SLLTECGSLLCEV; epitope peptide) [compound 477]

>  <OBS VALUE>
2403

$$$$
>  <SUBSTANCE>
577 (SLLTEVETPIRNIWGCRCNDSSD; epitope peptide) [compound 577]

>  <OBS VALUE>
2490

$$$$

Moving on to the next substance.
// query May I ask what Signal (peptides that show specific binding to Z3G1) has been recorded for 1574 (RLLTEVETPIRNEWGCRCNDSSD; epitope peptide) [compound 1574] ?
// result 1338

* * *

System: HuM2e antibody 23K12
Format: binding, human
Entries annotated with measured Signal (peptides that bind to 23K21 and 8I10)
Keep the answer to the number alone.

Guide cases for Signal (peptides that bind to 23K21 and 8I10), answers given:
>  <SUBSTANCE>
149 (CTEVETPIRNEWGSRSCLTEVETPIRNEWGSRC; epitope peptide) [compound 149]

>  <EXPERIMENTAL TARGET>
HuM2e antibody 23K12

>  <OBS VALUE>
1348

$$$$
>  <SUBSTANCE>
369 (SLLTEAETPIRNEWGCRCNDSSD; epitope peptide) [compound 369]

>  <EXPERIMENTAL TARGET>
HuM2e antibody 23K12

>  <OBS VALUE>
1481

$$$$
>  <SUBSTANCE>
452 (SLLTEVGSLLTEC; epitope peptide) [compound 452]

>  <EXPERIMENTAL TARGET>
HuM2e antibody 23K12

>  <OBS VALUE>
1326

$$$$
>  <SUBSTANCE>
489 (MSLLTECGMCLLTEV; epitope peptide) [compound 489]

>  <EXPERIMENTAL TARGET>
HuM2e antibody 23K12

>  <OBS VALUE>
1111

$$$$
>  <SUBSTANCE>
714 (SLLTEVETPIRNEWCCRCNDSSD; epitope peptide) [compound 714]

>  <EXPERIMENTAL TARGET>
HuM2e antibody 23K12

>  <OBS VALUE>
704

$$$$

// query Consider the substance 662 (SLLTEVETPIRNFWGCRCNDSSD; epitope peptide) [compound 662] and give its measured Signal (peptides that bind to 23K21 and 8I10).
// result 747

// query Next up: 564 (SLLTEVELPIRNEWGCRCNDSSD; epitope peptide) [compound 564]
// result 886

// query Also, 572 (SLLTEVETPIRNEKGCRCNDSSD; epitope peptide) [compound 572] please.
// result 868

// query Same thing, different substance: 703 (SLLTEVETPIRNWWGCRCNDSSD; epitope peptide) [compound 703]
// result 713
